Target: T1, S100B
T1 chain: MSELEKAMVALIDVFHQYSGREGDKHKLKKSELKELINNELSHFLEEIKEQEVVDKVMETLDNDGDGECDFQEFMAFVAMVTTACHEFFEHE
Assay: fluorescence anisotropy, N-terminal fluorescein labeled peptide
[ ]: non-standard residue; d: D form. fluorescein = N-terminal 5(6)-carboxyfluorescein label; Aib = CC(C)(N)C(=O)O
measurementLabel: Kd

binder="fluorescein-TRTKIDW[Aib]KIL[Aib]GGGCG-NH2 (The peptide is derived from TRTK-12 (CapZ residues 265-276) with Aib at N8 and S12; also called pBM-TRK) [pBM-TRTK (Aib substituted TRTK monomer peptide)]" experimentalresult="~300 nM"
